Entry source: paper PMC6152009

assay system: human serum albumin (HSA) (Homo sapiens, UniProt P02768)
Construct: gene ALB; essentially fatty acid free HSA
Sequence (P02768 25-609): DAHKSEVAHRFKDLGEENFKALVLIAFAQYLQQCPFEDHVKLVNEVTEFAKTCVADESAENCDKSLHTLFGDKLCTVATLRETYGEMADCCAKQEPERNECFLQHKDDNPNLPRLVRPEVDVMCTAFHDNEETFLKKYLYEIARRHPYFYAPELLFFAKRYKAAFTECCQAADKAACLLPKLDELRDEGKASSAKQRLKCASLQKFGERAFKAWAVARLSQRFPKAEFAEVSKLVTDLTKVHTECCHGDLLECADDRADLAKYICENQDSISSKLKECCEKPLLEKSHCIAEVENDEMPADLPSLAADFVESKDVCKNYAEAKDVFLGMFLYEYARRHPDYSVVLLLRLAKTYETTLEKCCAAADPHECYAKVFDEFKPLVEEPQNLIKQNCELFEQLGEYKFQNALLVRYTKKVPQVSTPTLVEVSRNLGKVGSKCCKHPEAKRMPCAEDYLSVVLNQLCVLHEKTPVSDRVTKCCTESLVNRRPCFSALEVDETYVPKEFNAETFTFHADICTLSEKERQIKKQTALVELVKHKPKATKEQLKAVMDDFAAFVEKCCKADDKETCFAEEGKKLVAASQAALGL
protocol description: intrinsic fluorescence quenching, double-log plot
Format: binding
condition set: 300 K, phosphate buffer pH 7.4, 15 µM HSA, <2% DMSO
Excerpt: intrinsic fluorescence quenching, double-log plot on human serum albumin (HSA)
reported property: Kb (M⁻¹)
Numbers only; they are read as M⁻¹.

Solved entries (count: 2):
COc1cc(O[C@@H]2O[C@H](CO)[C@@H](O)[C@H](O)[C@H]2O)c(CC=C(C)C)c(O)c1C(=O)CCc1ccc(O)cc1 [compound 6] ... 4480
COc1cc(O[C@@H]2O[C@H](CO)[C@@H](O)[C@H](O)[C@H]2O)c(CC=C(C)C)c(O)c1C(=O)/C=C/c1ccc(O)cc1 [compound 4, Xanthohumol 4’-O-β-D-glucopyranoside] ... 32710

Consider the additional compound presented here.
Query: Quick one: Kb for COc1cc(O[C@@H]2O[C@H](CO)[C@@H](OC)[C@H](O)[C@H]2O)c(CC=C(C)C)c(O)c1C(=O)CCc1ccc(O)cc1 [compound 7] ?
Response: 6110

---

Entries and their Kb values follow.
assay system: human serum albumin (HSA) (Homo sapiens, UniProt P02768)
Construct: gene ALB; essentially fatty acid free HSA
protocol description: intrinsic fluorescence quenching, double-log plot
Type: binding
condition set: 300 K, phosphate buffer pH 7.4, 15 µM HSA, <2% DMSO
Numbers only; they are read as M⁻¹.

COc1cc(O[C@@H]2O[C@H](CO)[C@@H](OC)[C@H](O)[C@H]2O)c(CC=C(C)C)c(O)c1C(=O)/C=C/c1ccc(O)cc1 ... 4550
COc1cc(O)c(CC=C(C)C)c(O)c1C(=O)/C=C/c1ccc(O)cc1 ... 86240
COc1cc(O)c(CC=C(C)C)c2c1C(=O)/C(=C/c1ccc(O)cc1)O2 ... 14250

Query: Quick one: Kb for "COc1cc(O[C@@H]2O[C@H](CO)[C@@H](OC)[C@H](O)[C@H]2O)c(CC=C(C)C)c2c1C(=O)/C(=C/c1ccc(O)cc1)O2" ?
Response: 9150

Query: Quick one: Kb for "COc1cc(O[C@@H]2O[C@H](CO)[C@@H](O)[C@H](O)[C@H]2O)c(CC=C(C)C)c2c1C(=O)/C(=C/c1ccc(O)cc1)O2" ?
Response: 4850

Query: Quick one: Kb for COc1cc(O)c(CC=C(C)C)c(O)c1C(=O)CCc1ccc(O)cc1 [compound 2, α,β-dihydroxanthohumol] ?
Response: 36350
